These data points were gathered from ChEMBL document CHEMBL1154737.

Test system: Calf thymus DNA
PROCEDURE_SUMMARY: Displacement of ethidium bromide from calf thymus DNA by fluorescence assay
Format: nucleic-acid assay, Bos taurus
Each record here notes measured pEC50.
// pEC50: -log10(molar conc.)

COc1ccccc1CNCCN1C(=O)c2ccc3c4c(ccc(c24)C1=O)C(=O)N(CCNCc1ccccc1OC)C3=O ... 7.03
CN(C)CCN1C(=O)c2cccc3cc([N+](=O)[O-])cc(c23)C1=O [MITONAFIDE] ... 4.94

Here's the next entry for you.
INPUT: Enter reported pEC50 observed with Calf thymus DNA for COc1ccccc1CNCCCN1C(=O)c2ccc3c4c(ccc(c24)C1=O)C(=O)N(CCCNCc1ccccc1OC)C3=O
OUTPUT: 6.91

---

Each record here notes measured IC50.
System: CCRF-CEM
PROCEDURE_SUMMARY: Cytotoxicity against human CCRF-CEM cells after 72 hrs by MTT assay
Format: functional, cell-based
Quick note: give the figure in nM, leave out the unit.

COc1ccccc1CNCCCCN1C(=O)c2cccc3cccc(c23)C1=O ... 3200

INPUT: Consider the compound COc1ccccc1CNCCCCN1C(=O)c2ccc3c4c(ccc(c24)C1=O)C(=O)N(CCCCNCc1ccccc1OC)C3=O and give its measured IC50.
OUTPUT: 800

INPUT: Consider the compound COc1ccccc1CNCCN1C(=O)c2ccc3c4c(ccc(c24)C1=O)C(=O)N(CCNCc1ccccc1OC)C3=O and give its measured IC50.
OUTPUT: 1300

INPUT: Consider the compound COc1ccccc1CNCCCCCCCCCN1C(=O)c2ccc3c4c(ccc(c24)C1=O)C(=O)N(CCCCCCCCCNCc1ccccc1OC)C3=O and give its measured IC50.
OUTPUT: 1400

---

System: SH-SY5Y
PROCEDURE_SUMMARY: Cytotoxicity against human SH-SY5Y after 72 hrs by trypan blue exclusion assay
Type: functional, cell-based
Each record here notes measured IC50.
Quick note: give the figure in µM, leave out the unit.

COc1ccccc1CNCCCN1C(=O)c2ccc3c4c(ccc(c24)C1=O)C(=O)N(CCCNCc1ccccc1OC)C3=O ... 1.4

Here's the next entry for you.
INPUT: Consider the compound COc1ccccc1CNCCN1C(=O)c2ccc3c4c(ccc(c24)C1=O)C(=O)N(CCNCc1ccccc1OC)C3=O and give its measured IC50.
OUTPUT: 1.4

---

System: CCRF-CEM
PROCEDURE_SUMMARY: Cytotoxicity against human CCRF-CEM cells after 72 hrs by MTT assay
Assay type: functional, cell-based
Each record here notes measured IC50.
Quick note: give the figure in nM, leave out the unit.

COc1ccccc1CNCCCCCCCCCCN1C(=O)c2cccc3cccc(c23)C1=O ... 8000
COc1ccccc1CNCCCCCN1C(=O)c2ccc3c4c(ccc(c24)C1=O)C(=O)N(CCCCCNCc1ccccc1OC)C3=O ... 1100
COc1ccccc1CNCCCCCCCN1C(=O)c2ccc3c4c(ccc(c24)C1=O)C(=O)N(CCCCCCCNCc1ccccc1OC)C3=O ... 2500
COc1ccccc1CNCCCCCCCCCCN1C(=O)c2ccc3c4c(ccc(c24)C1=O)C(=O)N(CCCCCCCCCCNCc1ccccc1OC)C3=O ... 700
COc1ccccc1CNCCCCCCCCN1C(=O)c2cccc3cccc(c23)C1=O ... 1200
COc1ccccc1CNCCCCCCCCN1C(=O)c2ccc3c4c(ccc(c24)C1=O)C(=O)N(CCCCCCCCNCc1ccccc1OC)C3=O ... 1600
COc1ccccc1CNCCCN1C(=O)c2ccc3c4c(ccc(c24)C1=O)C(=O)N(CCCNCc1ccccc1OC)C3=O ... 400
COc1ccccc1CNCCCCCCN1C(=O)c2ccc3c4c(ccc(c24)C1=O)C(=O)N(CCCCCCNCc1ccccc1OC)C3=O ... 2200

Here's the next entry for you.
INPUT: Consider the molecule COc1ccccc1CNCCCCCCCCCN1C(=O)c2cccc3cccc(c23)C1=O and give its measured IC50.
OUTPUT: 1300
